test system: Klebsiella pneumoniae (ATCC 700603); assay: microbe, parasite or virus in culture; settings: ATCC700603, read-out: Minimum Inhibitory Concentrations (MIC)
Quick list: MIC per entry.

compound="CC1O[C@@H](O[C@@H]2C(O)[C@H](NC(=O)[C@@H](O)CCN)CC(N)[C@H]2O[C@H]2OC(CN)[C@@H](O)[C@H](O)C2N)C(O)[C@@H](O)[C@@H]1N (stereo partly shown) [JT005]" measurement_name=MIC measured="1 to 2 µg/mL"
compound="CC1O[C@@H](O[C@H]2C(O[C@H]3OC(CN)CCC3N)C(N)C[C@@H](N)C2O)C(O)[C@@H](O)[C@@H]1N (stereo partly shown) [RR501, 3′,4′-Dideoxy Pyranmycin]" measurement_name=MIC measured="2 to 4 µg/mL"
compound="NCC[C@H](O)C(=O)N[C@@H]1C[C@H](N)[C@@H](O[C@H]2O[C@H](CN)[C@@H](O)[C@H](O)[C@H]2O)[C@H](O)[C@H]1O[C@H]1O[C@H](CO)[C@@H](O)[C@H](N)[C@H]1O [Amikacin, amikacin]" measurement_name=MIC measured="0.5 to 1 µg/mL"

Would you kindly look at the next entry?
Please indicate MIC recorded for C[C@H]1O[C@@H](O[C@@H]2[C@@H](O)[C@H](NC(=O)[C@@H](O)CCN)C[C@H](N)[C@H]2O[C@H]2O[C@H](CN)CC[C@H]2N)[C@H](O)[C@@H](O)[C@@H]1N [pyrankacin] 1 µg/mL
